- System: H1299
- EXPERIMENT_NOTES: Cellular proliferation assay (Alamar blue), H1299
- Format: cell-based
- MEASUREMENT_SETUP: Homo sapiens, NCI-H1299, H1299 cells; 10% FCS; 72 h with compound; Alamar blue 4 h; read-out: pIC50 H1299 (converted)
Kindly supply the reported IC50 values for the records listed here.
Give the value in µM but do not write µM after it.

Exam item: Find IC50 (H1299) for the entry COc1ccc2cc1OCCCNC(=O)CN(C)Cc1c[nH]c3ncnc(c13)N2 [Compound 6]
Marked response: 1.58

Exam item: Also check CN1CCCCN(C)C(=O)COc2cc(ccc2OCC(=O)Nc2ccc(Cl)cc2)Nc2ncnc3[nH]cc(c23)C1 [Compound 133]
Marked response: 0.2

Exam item: Also check CN1CCN(C)C(=O)COc2cccc(c2)Nc2ncnc3[nH]cc(c23)C1 [Compound 58]
Marked response: 5.01

Exam item: Also check CCCOc1ccc2cc1OCC(=O)N(C)CCCN(C)Cc1c[nH]c3ncnc(c13)N2 [Compound 101]
Marked response: 0.794

Exam item: Also check CCOCCOc1ccc2cc1OCC(=O)N(C)CCCN(C)Cc1c[nH]c3ncnc(c13)N2 [Compound 70]
Marked response: 0.501

Exam item: Also check CN1CCCN(C)C(=O)COc2cc(ccc2OCCCNc2ccc(Cl)cc2)Nc2ncnc3[nH]cc(c23)C1 [Compound 142]
Marked response: 2

Exam item: Also check CN1CCCN(C)C(=O)COc2cc(ccc2OCC(=O)NC2CCCC2)Nc2ncnc3[nH]cc(c23)C1 [Compound 91]
Marked response: 3.16

Exam item: Also check COc1ccc2cc1OCC(=O)N(C)CCCN(C)Cc1c[nH]c3ncnc(c13)N2 [Compound 7]
Marked response: 1

Exam item: Also check CN1CCN(C)C(=O)CCc2cccc(c2)Nc2ncnc3[nH]cc(c23)C1 [Compound 20]
Marked response: 10

====

Kindly supply the reported melting point values for the records listed here.
Give the value in °C but do not write °C after it.

Exam item: Recorded melting point of CCOCCOc1ccc2cc1OCC(=O)N(C)CCCN(C)Cc1c[nH]c3nc(C)nc(c13)N2 [Compound 147] , please.
Marked response: 251

Exam item: Also check COc1ccc2cc1OCC(=O)N(C)CCN(C)Cc1c[nH]c3ncnc(c13)N2 [Compound 10]
Marked response: 249.3

Exam item: Also check CN1CCCN(C)C(=O)COc2cc(ccc2OC2CCOCC2)Nc2ncnc3[nH]cc(c23)C1 [Compound 74]
Marked response: 270.9

Exam item: Also check COc1ccc2cc1OCC(=O)N(C)CCCN(C)Cc1c[nH]c3ncnc(c13)N2 [Compound 7]
Marked response: 267.9

====

Kindly supply the reported log10(IC50) values for the records listed here.
- ASSAY_TARGET: PLK4 (h) (Homo sapiens, UniProt O00444)
- Sequence (O00444 1-970): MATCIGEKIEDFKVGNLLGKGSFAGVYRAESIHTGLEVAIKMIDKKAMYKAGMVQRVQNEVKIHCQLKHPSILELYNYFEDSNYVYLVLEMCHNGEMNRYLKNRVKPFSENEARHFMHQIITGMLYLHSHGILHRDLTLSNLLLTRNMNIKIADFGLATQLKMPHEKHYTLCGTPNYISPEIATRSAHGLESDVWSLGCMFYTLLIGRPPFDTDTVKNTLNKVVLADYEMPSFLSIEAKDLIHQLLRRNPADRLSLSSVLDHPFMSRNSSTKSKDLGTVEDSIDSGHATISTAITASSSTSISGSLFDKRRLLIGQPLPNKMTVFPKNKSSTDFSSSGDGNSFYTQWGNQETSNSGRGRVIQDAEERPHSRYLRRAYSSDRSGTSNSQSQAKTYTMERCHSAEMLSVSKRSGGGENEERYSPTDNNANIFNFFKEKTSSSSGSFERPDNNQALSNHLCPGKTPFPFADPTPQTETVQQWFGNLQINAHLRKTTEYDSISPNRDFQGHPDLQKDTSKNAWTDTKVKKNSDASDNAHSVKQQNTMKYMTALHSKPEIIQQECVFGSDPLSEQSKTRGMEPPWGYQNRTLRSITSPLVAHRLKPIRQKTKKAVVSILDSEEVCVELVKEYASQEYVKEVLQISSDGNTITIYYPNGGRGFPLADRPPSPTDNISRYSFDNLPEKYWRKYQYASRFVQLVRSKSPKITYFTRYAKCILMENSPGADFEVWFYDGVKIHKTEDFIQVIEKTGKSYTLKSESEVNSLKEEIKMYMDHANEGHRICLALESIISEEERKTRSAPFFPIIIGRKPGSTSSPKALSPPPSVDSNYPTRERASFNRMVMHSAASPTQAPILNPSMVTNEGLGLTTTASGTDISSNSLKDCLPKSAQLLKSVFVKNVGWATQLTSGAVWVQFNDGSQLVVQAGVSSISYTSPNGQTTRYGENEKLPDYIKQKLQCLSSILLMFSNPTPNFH
- EXPERIMENT_NOTES: PLK-4 human kinase scintillation proximity assay (SPA)
- Format: biochemical
- MEASUREMENT_SETUP: 1 μM ATP, 60 minutes at r.t., read-out: PLK4 pIC50 (converted)
- Procedure: The in vitro inhibition of a panel of kinases was assessed using either the scintillation proximity assay (SPA) as described by Cook, N. D. et al., Advances in Experimental Medicine and Biology (1991), 36; p. 525-528. In the SPA technology the activity of the kinase of interest is measured using an appropriate biotinylated substrate that is incubated with the aforementioned kinase protein in the presence of (^33P) radiolabeled ATP. […] The scintillation intensity is detected by imaging on Leadseeker. […]
Units before log transform: nM; reported quantity: IC50; transform: log10.

Exam item: Recorded log10(IC50) of COCCN(CCOc1ccc2cc1OCC(=O)N(C)CCCN(C)Cc1c[nH]c3ncnc(c13)N2)C(C)C [Compound 140] , please.
Marked response: 2.20

Exam item: Also check COc1cc(NC(=O)COc2ccc3cc2OCC(=O)N(C)CCCN(C)Cc2c[nH]c4ncnc(c24)N3)cc(OC)c1OC [Compound 71]
Marked response: 1.90

Exam item: Also check CN1CCCN(C)C(=O)COc2cc(ccc2OCc2ccccc2)Nc2ncnc3[nH]cc(c23)C1 [Compound 11]
Marked response: 1.70

Exam item: Also check CN1CCCN(C)C(=O)CCCOc2cccc(c2)Nc2ncnc3[nH]cc(c23)C1 [Compound 32]
Marked response: 2.70

Exam item: Also check CC(C)Oc1ccc2cc1OCC(=O)N(C)CCCN(C)Cc1c[nH]c3ncnc(c13)N2 [Compound 100]
Marked response: 1.70

Exam item: Also check COc1ccc2cc1OCC(=O)N(C)CCCN(C)Cc1c[nH]c3ncnc(c13)N2 [Compound 7]
Marked response: 1.60

====

Kindly supply the reported log10 of IC50 values for the records listed here.
- System: H1299
- EXPERIMENT_NOTES: Cellular proliferation assay (Alamar blue), H1299
- Type: cell-based
- MEASUREMENT_SETUP: Homo sapiens, NCI-H1299, H1299 cells; 10% FCS; 72 h with compound; Alamar blue 4 h; read-out: pIC50 H1299 (converted)
- Description: Cellular proliferation of these compounds was tested on a panel of different cell lines in the presence of 10% FCS serum (37° C. and 5% (v/v) CO2). In a first step these cells were seeded and incubated for 24 hours in the absence of compound. In the second step the cells were incubated for 72 hours with the compounds to be tested for 72 hours. The viable cell number was finally assessed in a standard Alamar blue cell viability assay. […]
Units before log transform: µM; reported quantity: IC50; transform: log10.

Exam item: Recorded log10 of IC50 of CN1CCCN(C)C(=O)COc2cc(ccc2NC(=O)NC2CCCCC2)Nc2ncnc3[nH]cc(c23)C1 , please.
Marked response: 0.60

Exam item: Also check CN1CC(=O)NCCOc2cccc(c2)Nc2ncnc3[nH]cc(c23)C1
Marked response: 0.00

Exam item: Also check CN1CCN(C)C(=O)CCCCOc2cc(cc(C(F)(F)F)c2)Nc2ncnc3[nH]cc(c23)C1
Marked response: 0.80

Exam item: Also check CCN(CCOC)CCOc1ccc2cc1OCC(=O)N(C)CCCN(C)Cc1c[nH]c3ncnc(c13)N2
Marked response: 0.90

Exam item: Also check CN1CCN(C)C(=O)CCCOc2cc(cc(C(F)(F)F)c2)Nc2ncnc3[nH]cc(c23)C1
Marked response: 0.10

Exam item: Also check CN1CCCN(C)C(=O)COc2cc(ccc2OCCOc2cc(C(F)(F)F)ccn2)Nc2ncnc3[nH]cc(c23)C1
Marked response: -0.20

Exam item: Also check CCOc1ccc2cc1OCC(=O)N(C)CCCN(C)Cc1c[nH]c3ncnc(c13)N2
Marked response: 0.30

====

- Test system: U87-MG
- EXPERIMENT_NOTES: Cellular proliferation assay (Alamar blue), U87-MG
- Type: cell-based
- MEASUREMENT_SETUP: Homo sapiens, U-87 MG; U87-MG cells; 10% FCS; 72 h with compound; Alamar blue 6 h; read-out: pIC50 U87MG (converted)
Kindly supply the reported IC50 values for the records listed here.

Exam item: Recorded IC50 of COc1ccc2cc1OCC(=O)N[C@H](CO)CN(C)CCCc1c[nH]c3ncnc(c13)N2 , please.
Marked response: > 10 µM

Exam item: Also check COc1ccc2cc1OCC(=O)N(C)CCN(C)Cc1c[nH]c3ncnc(c13)N2
Marked response: > 10 µM

Exam item: Also check CN1CCCN(C)C(=O)COc2cc(cc(C(F)(F)F)c2)Nc2ncnc3[nH]cc(c23)C1
Marked response: > 10 µM

Exam item: Also check COCCCOc1ccc2cc1OCC(=O)N(C)CCCN(C)Cc1c[nH]c3ncnc(c13)N2
Marked response: 2 µM

Exam item: Also check COc1cc(NC(=O)COc2ccc3cc2OCC(=O)N(C)CCCN(C)Cc2cn(C)c4ncnc(c24)N3)cc(OC)c1OC
Marked response: > 10 µM

Every entry's value here was drawn from patent US8318731B2.
